# EXPERIMENT_DESCRIPTION: viability loss of HPDE-C7K cells – cell-based, fluorescence, HTS, primary screen (AID 431)
# EXPERIMENTAL_SETUP: HPDE-C7K KRASV12 cells, Alamar Blue viability, 48 h; at 10 µM; active compounds read high
The whole screen tested about 63,000 compounds, of which about 1,100 (1.7%) were called active. The sample as a whole holds a higher share of actives than the screen did. Measured potencies and affinities stand elsewhere.
// returns not satisfied unless cytotoxicity is strictly below 10%, in which case satisfied

Consider COc1ccc(N=c2oc3cc(O)ccc3cc2C(=O)NCC2CCCO2)cc1 (stereo not given) . Does its cytotoxicity lie strictly below 10%?
satisfied

Record: CCN1C(=O)c2cccc3c(NC(=O)c4ccc(S(=O)(=O)N(C)C)cc4)ccc1c23
satisfied
